Origin of values: PubChem BioAssay AID652126

System: Nuclear hormone receptor DAF-12 (Strongyloides stercoralis)
protocol: S. stercoralis DAF-12 nuclear receptor activators, primary screen, cell-based, luminescence, HEK293, GRIP1 co-expression, lit1-tk-luc (AID 652126);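 note: 0% = DMSO-only wells and 100% = 3 µM delta7-dafachronic acid wells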
condition_description: HEK293 ssDAF-12/GRIP1 lit1-tk-luc reporter, at 6.8 µM, hits give high values, % of 3 µM dafachronic acid response
Among all 370,000 compounds or so, about 3,700 (1%) were called active. The entries come from a sample that favours actives as a whole.
We begin with a simple list: items and their reported activation.

>  <chemical_structure>
CCCCN1CCN(C(=O)c2ccc3c(c2)NC(=O)C(C)(C)O3)CC1

>  <measured_target>
Nuclear hormone receptor DAF-12 (Strongyloides stercoralis)

>  <activation, %>
-1.34

$$$$
>  <chemical_structure>
O=C(Nc1ccc2sc3ccccc3c(=O)c2c1)c1ccccc1Cl

>  <measured_target>
Nuclear hormone receptor DAF-12 (Strongyloides stercoralis)

>  <activation, %>
1.16

$$$$
>  <chemical_structure>
COCC(=O)N1CCc2ccc(NC(=O)c3ccccc3Cl)cc2C1

>  <measured_target>
Nuclear hormone receptor DAF-12 (Strongyloides stercoralis)

>  <activation, %>
-1.31

$$$$
>  <chemical_structure>
C=CCN1C(=O)[C@@H](CC(=O)NCC2CCCCC2)[C@]2(C(=O)OC)CCCCC=C12

>  <measured_target>
Nuclear hormone receptor DAF-12 (Strongyloides stercoralis)

>  <activation, %>
-1.59

$$$$
>  <chemical_structure>
CS(=O)(=O)c1ccccc1C(=O)Nc1ccc2sccc2c1

>  <measured_target>
Nuclear hormone receptor DAF-12 (Strongyloides stercoralis)

>  <activation, %>
-1.02

$$$$
>  <chemical_structure>
CNc1ccc([N+](=O)[O-])cc1C(=O)O

>  <measured_target>
Nuclear hormone receptor DAF-12 (Strongyloides stercoralis)

>  <activation, %>
-1.81

$$$$

###

Test system: Nuclear hormone receptor DAF-12 (Strongyloides stercoralis)
protocol: S. stercoralis DAF-12 nuclear receptor activators, primary screen, cell-based, luminescence, HEK293, GRIP1 co-expression, lit1-tk-luc (AID 652126);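 note: 0% = DMSO-only wells and 100% = 3 µM delta7-dafachronic acid wells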
condition_description: HEK293 ssDAF-12/GRIP1 lit1-tk-luc reporter, at 6.8 µM, hits give high values, % of 3 µM dafachronic acid response
Screen size: about 370,000 compounds; about 3,700 (1%) were called active. Many of the other results were omitted from the sample, so actives are more common in it than they were.
We begin with a simple list: items and their reported activation.

>  <compound>
O=S1(=O)c2ccc(N3CCN(Cc4ccccc4F)CC3)cc2Oc2ccccc2CN1Cc1cn(Cc2ccc(Cl)cc2)nn1

>  <activation (%)>
-1.5

$$$$
>  <compound>
CN(Cc1ccccc1)C(=O)COC(=O)/C=C/c1ccc2c(c1)OCO2

>  <activation (%)>
-0.82

$$$$
>  <compound>
C=CCN1C(=O)[C@@H](CC(=O)NCCCCc2ccccc2)[C@]2(C(=O)OCC)CCCCC/C=C/12

>  <activation (%)>
-1.06

$$$$
>  <compound>
Cc1cccc(NC(=O)/C=C/c2ccc3c(c2)OCO3)n1

>  <activation (%)>
1.53

$$$$
>  <compound>
O=C(CSc1nnc(COc2ccccc2)n1Cc1ccco1)c1ccc2ccccc2c1

>  <activation (%)>
-1.35

$$$$
>  <compound>
CCCOc1ccc(Oc2c(Cl)cnn(Cc3cccc4ccccc34)c2=O)cc1

>  <activation (%)>
-1.41

$$$$
>  <compound>
CCCC[C@H]1C2CC(OC(=O)NCc3ccccc3)C(C2)[C@H]2CCCCN21 (stereo not given in full)

>  <activation (%)>
-1.06

$$$$
>  <compound>
CC(=O)N1CCc2cc(S(=O)(=O)NCCC(=O)N3CCCC3)ccc21

>  <activation (%)>
-0.66

$$$$
>  <compound>
CCSC1=C(C#N)C(=O)n2c1cc1c2CCCC1

>  <activation (%)>
-0.32

$$$$
>  <compound>
O=C(NCCCc1ccccc1)[C@H](Cc1ccccc1)NC1(C(=O)NCCc2c[nH]c3ccccc23)CCC1

>  <activation (%)>
-0.89

$$$$
